The following compounds are listed with their measured GI50 values.
System: MCF7
assayOverview: NCI tumour cell line growth inhibition, 48 h
Calls of active or inactive are those of the source. Cut-off read from the data, not from the text of the source: active = GI50 up to about 1.1 µM and inactive = higher.

Prompt line: Look up GI50: Cc1cc2ccccc2oc(=O)/c1=N\Nc1ccccc1
Response line: 83.2 µM (inactive)

Prompt line: Next: O=C(Cn1c2c(c3ccccc31)CCCC2)N1CCOCC1
Response line: > 100 µM (inactive)

----------
Test system: OVCAR-5
assayOverview: NCI tumour cell line growth inhibition, 48 h
Active and inactive are the calls of the source. Rule as the data show it: active = GI50 up to about 1.1 µM and inactive = higher.
The following compounds are listed with their measured GI50 values.

{"compound": "COc1ccccc1NC(=S)Nc1cc(C)ccn1", "GI50": "> 100 µM (inactive)"}
{"compound": "COC(=O)c1nc(NC#N)nc(O)c1C", "GI50": "> 100 µM (inactive)"}
{"compound": "COc1cccc(N2C(Cl)C(=O)C2c2c[nH]c3ccccc23)c1 (stereo unspecified)", "GI50": "46.1 µM (inactive)"}

Prompt line: Observed GI50 on OVCAR-5 for [N-]=[N+]=C(C(=O)OCC#CCOC(=O)C(=[N+]=[N-])S(=O)(=O)c1ccccc1)S(=O)(=O)c1ccccc1 , please.
Response line: > 10 µM (inactive)

Prompt line: Next: Cn1nc2ccc3nccc(N4CCN(CCO)CC4)c3c2n1
Response line: > 100 µM (inactive)

Prompt line: Next: c1ccc2cc(OCC3CO3)c(OCC3CO3)cc2c1 (stereo unspecified)
Response line: 11.4 µM (inactive)
